PROTOCOL NOTES: Toxicity: maximum tolerated dose with an intravenous injection
SETUP CONDITIONS: mouse, in vivo, mice
ASSAY READOUT: MTD (mg/kg)
Express your answer in mg/kg, writing the number without its unit.

In one line, give reported MTD of the entry `C[C@H]1CC(=N)N[C@@H]2[C@H](Cl)[C@@H]21` .
30
